System: GAL4 (yeast transcription activator)—PPARγ fusion protein
Protocol Summary: PPARγ agonist activity assay (GAL4-PPARγ / CAT reporter in COS-1 cells)
Assay type: cell-based
Measurement Setup: concentration of 1 μM, CAT activity after 24 hours
Measurement Type: PPARγ agonist activity relative to the negative control group with no drug added

The examples below pair each entry with its known result.
| Molecule | Reported Measurement |
| --- | --- |
| CC/C=C\C/C=C\C/C=C\C/C=C\C[C@H](O)/C=C/C=C\CCC(=O)O [8(S)-OH-DHA] | about 7 times |
| CC/C=C\C/C=C\C/C=C\C/C=C\C/C=C\C=C\[C@@H](O)CCC(=O)O [4(S)-OH-DHA] | about 3 times |
| CC/C=C\C[C@H](O)/C=C/C=C\C/C=C\C/C=C\C/C=C\CCC(=O)O [17(S)-OH-DHA] | about 3 times |
| CC/C=C\C/C=C\C[C@H](O)/C=C/C=C\C/C=C\C/C=C\CCC(=O)O [14(S)-OH-DHA] | about 7 times |
| CC/C=C\C/C=C\C/C=C\C[C@H](O)/C=C/C=C\C/C=C\CCC(=O)O [11(S)-OH-DHA] | about 3 times |

Please turn your attention to the following entry.
Task item: Using the record for CC/C=C\C/C=C\C/C=C\C=C\[C@@H](O)C/C=C\C/C=C\CCC(=O)O [10(S)-OH-DHA] , state its measured PPARγ agonist activity relative to the negative control group with no drug added.
Reply: about 3 times
